# assayed system: cytochrome c (Fe^2+ cyt c) (Equus caballus)
# Sequence (P00004 2-105): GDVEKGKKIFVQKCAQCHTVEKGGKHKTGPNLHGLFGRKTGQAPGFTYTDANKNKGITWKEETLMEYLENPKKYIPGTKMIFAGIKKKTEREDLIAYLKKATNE
# protocol description: equilibrium heme Soret absorbance titration with CO at […] °C
recorded metric: Kd (nM)
Kindly answer with a numeric value in nM, unit omitted.

Sample `[C-]#[O+]` , system: cytochrome c (Fe^2+ cyt c) (Equus caballus). Its Kd is 14

Data origin, for the record: paper PMC2653224
